- subject.of.test: Kv1.2 (Homo sapiens)
- Construct: expressed in transfected cells
- Sequence (P16389 whole entry): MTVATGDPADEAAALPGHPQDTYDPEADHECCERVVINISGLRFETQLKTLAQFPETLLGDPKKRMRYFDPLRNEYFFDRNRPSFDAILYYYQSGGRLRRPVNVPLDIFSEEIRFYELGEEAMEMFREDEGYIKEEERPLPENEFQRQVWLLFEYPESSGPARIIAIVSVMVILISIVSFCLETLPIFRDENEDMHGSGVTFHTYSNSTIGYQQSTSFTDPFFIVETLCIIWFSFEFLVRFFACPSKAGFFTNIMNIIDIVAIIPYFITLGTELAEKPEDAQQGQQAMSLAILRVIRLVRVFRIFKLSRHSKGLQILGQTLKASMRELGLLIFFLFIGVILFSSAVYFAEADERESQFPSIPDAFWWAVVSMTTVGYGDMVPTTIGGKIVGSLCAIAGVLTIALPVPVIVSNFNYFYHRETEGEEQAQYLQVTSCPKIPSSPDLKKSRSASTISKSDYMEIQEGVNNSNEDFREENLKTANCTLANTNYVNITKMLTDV
- assay.overview: Patch clamp assay (QPatch), Kv1.2
- Assay type: cell-based
- condition.set: ratio of IC50 Kv1.2/Kv1.3
Rule: Selectivity Kv1.2/Kv1.3 of 500 or more gives YES; anything lower gives NO.

Here are 5 substances together with their reported answers.
substance	subject.of.test	assigned.class
H-NMDMRC(1)SISVEC(2)KQKC(3)LKAIGSIFGKC(1)MNKKC(2)KC(3)YPR-NH2 [Peptide 27]	Kv1.2 (Homo sapiens)	NO
H-NMDMRC(1)SASVEC(2)KQKC(3)LKAIGSIFGKC(1)MNKKC(2)KC(3)YPRRRTA-NH2 [Peptide 24]	Kv1.2 (Homo sapiens)	NO
H-N[Nle]D[Nle]RC(1)SASVEC(2)KQSC(3)LKAIGSIFGKC(1)[Nle]NKKC(2)KC(3)YPR-NH2 [Peptide 49]	Kv1.2 (Homo sapiens)	YES
H-NMDMRC(1)SASVEC(2)KQKC(3)LKAIESIFGKC(1)MNKKC(2)KC(3)YPR-NH2 [Peptide 23]	Kv1.2 (Homo sapiens)	YES
H-NIDMRC(1)SASVEC(2)KQKC(3)LKAIGSIFGKC(1)MNKKC(2)KC(3)YPR-OH [Peptide 9]	Kv1.2 (Homo sapiens)	YES

Q. Threshold query (Selectivity Kv1.2/Kv1.3 >= 500) on H-NMDMRC(1)SASVEC(2)KQKC(3)LKRIGSIFGKC(1)MNKKC(2)KC(3)YPR-NH2 [Peptide 57]
A. NO

Q. Threshold query (Selectivity Kv1.2/Kv1.3 >= 500) on H-NMDMRC(1)SASVEC(2)KQKC(3)LKAIGSIFGKC(1)MNGKC(2)KC(3)YPR-NH2 [Peptide 37]
A. YES

Q. Threshold query (Selectivity Kv1.2/Kv1.3 >= 500) on H-NMDMRC(1)SASVEC(2)KQKC(3)LDAIGSIFGKC(1)MNKKC(2)KC(3)YPR-NH2 [Peptide 21]
A. NO

Q. Threshold query (Selectivity Kv1.2/Kv1.3 >= 500) on H-NMDMRC(1)SASREC(2)KQKC(3)LKAIGSIFGKC(1)MNKKC(2)KC(3)YPR-NH2 [Peptide 28]
A. NO

Q. Threshold query (Selectivity Kv1.2/Kv1.3 >= 500) on H-NMDMRC(1)SASVEC(2)KQKC(3)LAAIGSIFGKC(1)MNKKC(2)KC(3)YPR-NH2 [Peptide 53]
A. YES

Q. Threshold query (Selectivity Kv1.2/Kv1.3 >= 500) on H-QMDMRC(1)SASVEC(2)KQKC(3)LKAIGRGFGKC(1)MNKKC(2)KC(3)YPR-OH [Peptide 2]
A. NO

Q. Threshold query (Selectivity Kv1.2/Kv1.3 >= 500) on H-NMDMRC(1)SASVEC(2)KQKC(3)KKAIGSIFGKC(1)MNKKC(2)KC(3)YPR-NH2 [Peptide 20]
A. NO

Q. Threshold query (Selectivity Kv1.2/Kv1.3 >= 500) on H-NMDMRC(1)SASVEC(2)KVKC(3)LKAIGSIFGKC(1)MNKKC(2)KC(3)YPR-NH2 [Peptide 18]
A. NO

Q. Threshold query (Selectivity Kv1.2/Kv1.3 >= 500) on H-NMDMRC(1)SASVQC(2)KQKC(3)LKAIGSIFGKC(1)MNKKC(2)KC(3)YPR-NH2 [Peptide 29]
A. NO

Q. Threshold query (Selectivity Kv1.2/Kv1.3 >= 500) on H-P[Nle]E[Nle]RC(1)[2-Amino-3-guanidinopropionyl]ASVEC(2)KQKC(3)LAAIGSIFGKC(1)[Nle]NKKC(2)KC(3)YPR-OH [Peptide 91]
A. YES

Q. Threshold query (Selectivity Kv1.2/Kv1.3 >= 500) on H-N[Nle]D[Nle]RC(1)SASKEC(2)KQKC(3)LKAIGSIFGKC(1)[Nle]NKKC(2)KC(3)YPR-NH2 [Peptide 64]
A. YES
